# ASSAY_COMMENT: single-dose brain PK and brain distribution
# Type: in vivo, C57BL/6 mice
# CONDITION_DESCRIPTION: C57BL/6, brain, iv; i.v. 1 mg/kg; mouse
MEASUREMENT_LABEL: MRT (h)
Write the value in h as a bare number.

Note to self: MRT recorded for CCCCCCCCCCCCC/C=C/[C@@H](O)[C@H](CO)NC(C)=O [N-AS] was 6.94

====

# ASSAY_COMMENT: single-dose brain PK and brain distribution
# Format: in vivo, C57BL/6 mice
# CONDITION_DESCRIPTION: C57BL/6, brain, po; p.o. 10 mg/kg; mouse
MEASUREMENT_LABEL: half-life (h)
Write the value in h as a bare number.

Note to self: half-life recorded for CCCCCCCCCCCCC/C=C/[C@@H](O)[C@H](CO)NC(C)=O [N-AS] was 22

Entry source: paper PMC7217877
